test system: SK-MEL-28 melanoma; test: NCI tumour cell line growth inhibition, 48 h; in the data active = GI50 below about 0.43 µM; inactive = the rest
Log the outcome using a class from True for active, False for inactive

Record excerpt, results attached:
>  <Compound>
COc1cc2c(cc1OCCCCCN1CCN(c3ncnc4ccccc34)CC1)N=CC1CCCN1C2=O (configuration not stated)

>  <Cat>
True

$$$$
>  <Compound>
Nc1c(C(=O)Nc2ccccn2)sc2nc3c(cc12)C(=O)CCC3

>  <Cat>
False

$$$$
>  <Compound>
O=C(Nc1nc(-c2c[nH]c3ccccc23)cs1)c1n[nH]c(=O)c2ccccc12

>  <Cat>
False

$$$$
>  <Compound>
O=c1[nH]c(O)c(C=Nc2ccc(-c3nc4ccccc4o3)cc2)c(=O)[nH]1

>  <Cat>
False

$$$$
>  <Compound>
C[C@H](CCOc1cccc(CC(=O)O)c1)N(Cc1cccc(C(F)(F)F)c1Cl)CC(c1ccccc1)c1ccccc1

>  <Cat>
False

$$$$

Prompt line: // outcome(item) with item = CNCCCNc1ccnc2cc(Cl)ccc12
Response line: False

Prompt line: // outcome(item) with item = CCSc1nc(N=Cc2ccccc2O)c2cn[nH]c2n1
Response line: False

====

system: RPMI-8226 leukemia; assay: NCI tumour cell line growth inhibition, 48 h
Measured Parameter: log10 TGI (log10 of the value in µM)
A difference of one corresponds to tenfold TGI; all values are log10 with TGI in µM.

>  <Molecule>
CC[C@]1(O)C[C@H]2CN(CCc3c([nH]c4ccccc34)C(C(=O)OC)(c3cc4c(cc3OC)N(C)[C@H]3[C@@](O)(C(=O)OC)[C@H](OC(C)=O)[C@]5(CC)[C@@H]6C[C@@H]6CN6CC[C@]43[C@@H]65)C2)C1 (some centres not stated)

>  <log10 TGI>
0.32

$$$$
>  <Molecule>
CC(=O)N/C(=C\c1ccccc1/C=C(\NC(C)=O)c1nc2cc(C)c(C)cc2[nH]1)c1nc2cc(C)c(C)cc2[nH]1

>  <log10 TGI>
1.81

$$$$
>  <Molecule>
CN(C)CCNC(=O)Cc1ccccc1Nc1c(Cl)cccc1Cl

>  <log10 TGI>
1.58

$$$$
>  <Molecule>
CC1(C)CCc2c(ccc(C(=O)/C=C/c3ccc(O)cc3)c2O)O1

>  <log10 TGI>
1.32

$$$$
>  <Molecule>
O=C(CCSC1=NCCCN1)c1ccc(F)cc1

>  <log10 TGI>
1.17

$$$$

log10 TGI for Cc1ccc2c(c1)c1ccc3c(c1n2C)C(=O)C=CC3=O is 0.62

====

tested on: SK-MEL-2 melanoma; test: NCI tumour cell line growth inhibition, 48 h
Measured Parameter: TGI

Examples from the recorded data:
>  <Compound>
C=C(C)CNCCN

>  <Result>
> 100 µM

$$$$
>  <Compound>
O=C(NN1C(=O)CS(=O)(=O)C1c1ccc(C(F)(F)F)cc1)c1ccncc1 (centres undefined)

>  <Result>
> 100 µM

$$$$
>  <Compound>
C=C(C)[C@@H]1CC[C@]2(CN)CC[C@]3(C)[C@H](CC[C@@H]4[C@@]5(C)CCCNC(C)(C)[C@@H]5CC[C@]43C)[C@@H]12

>  <Result>
3.88 µM

$$$$
>  <Compound>
CCN(Cc1c(F)cccc1OC)c1ccc(CO)c(Cl)c1

>  <Result>
21.7 µM

$$$$
>  <Compound>
CCc1n[nH]c(=O)n1-c1ccc2ccccc2c1

>  <Result>
> 100 µM

$$$$
>  <Compound>
COC(=O)/C=C/c1cc(OC(C)=O)c2c(c1)C(C(=O)OC)C(c1ccc(OC(C)=O)c(OC(C)=O)c1)O2 (centres undefined)

>  <Result>
> 100 µM

$$$$
>  <Compound>
Clc1sc(Cl)c2c1[C@@H](Cl)C[C@@H]2Br

>  <Result>
> 100 µM

$$$$
>  <Compound>
COc1cc(Nc2ccc3c(c2)CCC3)nc(OC)n1

>  <Result>
> 100 µM

$$$$
>  <Compound>
COc1cc(C[P+](c2ccccc2)(c2ccccc2)c2ccccc2)cc(OC)c1OC

>  <Result>
> 100 µM

$$$$
>  <Compound>
CSc1csc(-c2ccc(-c3ccc(-c4cc(SC)cs4)s3)s2)c1

>  <Result>
> 100 µM

$$$$

TGI for Cc1ccnc(NC(=S)Nc2ccc([N+](=O)[O-])cc2)c1 is > 100 µM

TGI for O=c1c2c(no[n+]2[O-])c2ccccc2n1-c1ccccc1 is 18.8 µM
